- MEASURED_ON: ZEBOV GP (Zaire ebolavirus)
- PROTOCOL_TEXT: affinity for recombinant ZEBOV GP; method not described
RECORDED_ENDPOINT: Kd (pM)
The answer is to be given in pM; state only the numeric part.

Record request: Kd value, item USAMRIID mAb 13F6 (antibody)
330
